- Target desc: T1, delta opioid receptor (DOR) (UniProt P41143)
- T1 chain: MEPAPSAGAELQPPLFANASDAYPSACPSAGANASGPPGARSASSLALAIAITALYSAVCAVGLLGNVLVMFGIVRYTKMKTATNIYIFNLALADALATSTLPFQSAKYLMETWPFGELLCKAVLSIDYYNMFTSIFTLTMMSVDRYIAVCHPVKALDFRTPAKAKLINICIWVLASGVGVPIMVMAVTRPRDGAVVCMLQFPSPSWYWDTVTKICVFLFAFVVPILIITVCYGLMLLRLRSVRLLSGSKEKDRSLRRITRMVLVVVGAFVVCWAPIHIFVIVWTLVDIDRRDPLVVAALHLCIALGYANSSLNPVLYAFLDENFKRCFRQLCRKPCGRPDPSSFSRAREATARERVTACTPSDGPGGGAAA
- Assay comment: competition
Non-standard residues stand in square brackets, D forms with d. No end group written: not given here. *: point of attachment. NMeF = CN[C@@H](Cc1ccccc1)C(=O)O; Dab = NCC[C@H](N)C(=O)O; Dap = NC[C@H](N)C(=O)O; NHBn = c1ccc(CN*)cc1
Quantity kind: Ki

- Binder: "Y[dA]G[NMeF][Dab]PLW-NHBn [AKG172]"
  Quantity kind: "Ki"
  Test result: "100 nM"
- Binder: "Y[dA]GFSPLW (not fully specified (C-terminus)) [AKG038]"
  Quantity kind: "Ki"
  Test result: "7 nM"
- Binder: "Y[dA]G[NMeF][Dap]PLW-NHBn [AKG171]"
  Quantity kind: "Ki"
  Test result: "33 nM"
- Binder: "Y[dA]GF[dS]PLW-NHBn [AKG101]"
  Quantity kind: "Ki"
  Test result: "34 nM"
